# Tested on: Vero E6
# TEST_SUMMARY: cell viability relative to DMSO; higher = less toxic
# STATED_CONDITIONS: 72 h; 1000 nM
MEASUREMENT_TYPE: cell viability (%)
Field format: number, assumed %, no unit text.

// cell viability lookup, compound = CO[C@H]1C[C@H](O[C@@H]2/C(C)=C/C[C@@H]3C[C@@H](C[C@]4(CC[C@H](C)[C@@H](C5CCCCC5)O4)O3)OC(=O)[C@@H]3C=C(C)/C(=N/O)[C@H]4OC/C(=C\C=C\[C@@H]2C)[C@]43O)O[C@@H](C)[C@@H]1O , result: 107

So, O=C1CNC(=O)CN1 ? Its cell viability was 91.4

The compound identified as O=C(COP(=O)(O)O)[C@@H](O)[C@H](O)[C@H](O)COP(=O)(O)O registered its cell viability at 102

Looking up C=C[C@@]1(C)CC(=O)[C@]2(O)[C@@]3(C)[C@@H](O)CCC(C)(C)[C@@H]3[C@H](O)[C@H](OC(C)=O)[C@@]2(C)O1 , I see its cell viability listed as 89.9

For reference, reported cell viability for NCCCCN=C(N)N stands at 104

Entry N[C@H](C(=O)O)c1ccc(O)cc1 , cell viability reported as 91.3

Value of cell viability reported for the compound CCN(Cc1ccc(Cl)nc1)/C(=C/[N+](=O)[O-])NC is 96.9

The reported cell viability of the compound CC(=O)[C@H]1CC[C@H]2[C@@H]3CC=C4C[C@@H](OC(=O)CCC(=O)O)CC[C@]4(C)[C@H]3CC[C@]12C [pregnenolone-succinate] was 97.3
